Run Description: qHTS assay to identify small molecule agonists of the estrogen related receptor signaling pathway with the pleiotropic PPARgamma coactivator (PGC) from Tox21 10K library (AID 1224842); also: nearly all actives have a fitted effect of over 15% in size
Details: PGC/ERR reporter cell line, luciferase ONE-Glo, 18 h; series mostly up to 92.4 µM
Inconclusive results are not listed. The source made the active and inactive calls. Calls follow the shape of the dose curve; as a rule, active = well fitted activation curve with a large enough effect in the repeat runs; inconclusive = weak or mixed curves, or effect the other way; inactive = no such curve, though single readings can be large or run the other way.
Pick one and only one: active, inactive

What is the recorded call for this molecule in the test? O=C(C(Cl)Cl)N1CCOC12CCCCC2
inactive

* * *

Run Description: qHTS assay for identifying genotoxic compounds that show differential cytotoxicity against isogenic chicken DT40 cell lines with known DNA damage response pathways - Rev3 mutant cell line (AID 743014); also: nearly all actives have a fitted effect of over 55% in size
Details: chicken DT40 Rev3-/- viability, CellTiter-Glo, 40 h; series mostly up to 68.4 µM
Records with an inconclusive call do not appear. The source made the active and inactive calls. Calls come from the whole dose curve; as a rule, active = well fitted cell-killing curve with a large enough effect in the repeat runs; inconclusive = weak or mixed curves, or effect the other way; inactive = no such curve, though single readings can be large or run the other way.
Pick one and only one: active, inactive

The following compounds have reported results that may help.
Compound: CC(C)OC(C)C
Assigned Label: inactive
--
Compound: Cc1cccc(C)c1NC(=O)CN1CCCCCC1
Assigned Label: inactive
--
Compound: CCOC(=O)c1ccccc1O
Assigned Label: inactive
--
Compound: Cc1ncc(CO)c(CN)c1O
Assigned Label: inactive

What is the recorded call for this compound in the test? Cc1cc(S(=O)(=O)O)c(N)cc1Cl
inactive

What is the recorded call for this compound in the test? COC(=O)c1ccc2cc(C(=O)OC)ccc2c1
inactive

What is the recorded call for this compound in the test? NNS(=O)(=O)c1ccc(Oc2ccc(S(=O)(=O)NN)cc2)cc1
active

What is the recorded call for this compound in the test? O=c1oc2c(O)c(O)cc3c(=O)oc4c(O)c(O)cc1c4c23
inactive

What is the recorded call for this compound in the test? CCOC(=O)COc1ccc2c(c1)CC(NCC(O)c1cccc(Cl)c1)CC2 (centres undefined)
active

What is the recorded call for this compound in the test? CNCCC(Oc1ccccc1OC)c1ccccc1 (centres undefined)
inactive

What is the recorded call for this compound in the test? CC(C)S
inactive

What is the recorded call for this compound in the test? O=C1C=CC(=O)O1
inactive

What is the recorded call for this compound in the test? Cc1ccc(C=O)s1
inactive

What is the recorded call for this compound in the test? CCCCc1ccc2nc(NC(=O)OC)[nH]c2c1
active

Cited source for all entries: PubChem BioAssay (Tox21)
